# Test system: metabolism of retinoic acid in human breast cancer cells
# procedureDetails: Inhibition of retinoic acid (RA) metabolism (Example C.1)
# Format: cell-based
# conditions: MCF-7 human breast cancer cells, 3H-RA as substrate; concentration needed to reduce the amount of metabolites to 50% of the control
testReadout: IC50 (nM)

The cases that follow already have their IC50 on record.
>>> valueobserved("CCC(CC)C(c1ccc(NC(=O)CCc2ccc(OC)c(OC)c2)cc1)n1ccnc1 (racemic) [Compound 32]")
0.697
>>> valueobserved("CCC(CC)C(c1ccc(NC(=O)CC2COc3ccccc3O2)cc1)n1ccnc1 (mixture of isomers) [Compound 26]")
0.201
>>> valueobserved("CCC(CC)C(c1ccc(NC(=O)Cc2ccc3c(c2)OCCO3)cc1)n1ccnc1 (racemic) [Compound 36]")
1.43
>>> valueobserved("CCOc1ccc(CCC(=O)Nc2ccc(C(C(CC)CC)n3ccnc3)cc2)cc1 (racemic) [Compound 39]")
0.104
>>> valueobserved("O=C(Cc1ccccc1)Nc1ccc(C(c2cccc(C(F)(F)F)c2)n2cncn2)cc1 (racemic) [Compound 614]")
278
>>> valueobserved("O=C(/C=C/c1ccccc1)Nc1ccc(C(c2cccc(C(F)(F)F)c2)n2cncn2)cc1 (racemic) [Compound 617]")
151
>>> valueobserved("CC(C)C(c1ccc(NC(=O)c2cnc3ccccc3n2)cc1)n1ccnc1 (racemic) [Compound 216]")
11.7

P = CC(C)C(c1ccc(NC(=O)C(c2ccccc2)C2CCCCC2)cc1)n1ccnc1 (mixture of isomers) [Compound 661]
Q = CC(C)C(c1ccc(NC(=O)Cc2ccc(N)cc2)cc1)n1ccnc1 (centres unmarked) [Compound 145]
[Q] Which numeric IC50 is bigger, that of P or that of Q ? Reply briefly: the label of your chosen item.
[A] P

====

# Tested on: metabolism of retinoic acid in human breast cancer cells
# procedureDetails: Inhibition of retinoic acid (RA) metabolism (Example C.1)
# Type: cell-based
# conditions: MCF-7 human breast cancer cells, 3H-RA as substrate; concentration needed to reduce the amount of metabolites to 50% of the control
testReadout: IC50 (nM)

>>> valueobserved("CC(C)C(c1ccc(NC(=O)C2CCc3ccccc3O2)cc1)n1ccnc1 (centres unmarked)")
5.14

I = CC(C)C(c1ccc(NC(=O)Cc2ccc(F)cc2)cc1)n1cncn1 (centres unmarked)
II = CCC(CC)C(c1ccc(NC(=O)C2=COc3ccccc3O2)cc1)n1ccnc1 (racemic)
[Q] Between I and II , whose measured IC50 reads higher? Identify your selection by its label.
[A] II
(II: 61 nM, I: 4.49 nM)

====

# Tested on: metabolism of retinoic acid in human breast cancer cells
# procedureDetails: Inhibition of retinoic acid (RA) metabolism (Example C.1)
# Type: cell-based
# conditions: MCF-7 human breast cancer cells, 3H-RA as substrate; concentration needed to reduce the amount of metabolites to 50% of the control
# Procedure: The property to delay the metabolism of retinoic acid can be evidenced in various in vitro and in vivo experiments. […] MCF-7 human breast cancer cells were grown as stock cultures according to art-known protocols. […] The fraction containing the polar ^3H-labelled metabolites was collected and counted in a scintillation counter. […]
pIC50: −log10 of the molar value.
testReadout: pIC50

P = COc1ccc(CC(=O)Nc2ccc(C(C(C)C)n3cncn3)cc2)cc1OC.O (centres unmarked)
Q = CCC(CC)C(c1ccc(NC(=O)Cc2ccc(C)c(C)c2)cc1)n1ccnc1 (racemic)
R = CCC(CC)C(c1ccc(NC(=O)Cc2ccc(C)c(OC)c2)cc1)n1cncn1 (single isomer, unassigned) [Compound 783]
S = CCC(C)C(c1ccc(NC(=O)Cc2ccc(OC)c(OC)c2)cc1)n1cncn1 (mixture of isomers)
[Q] Sort the entries above by pIC50, smallest first. Please list the labels in the order you were asked to rank them.
[A] R, P, S, Q
(R: 7.40, P: 8.32, S: 8.66, Q: 9.00)
